These records show pIC50 for UniProt:P17948.
Sequence (P17948 whole entry): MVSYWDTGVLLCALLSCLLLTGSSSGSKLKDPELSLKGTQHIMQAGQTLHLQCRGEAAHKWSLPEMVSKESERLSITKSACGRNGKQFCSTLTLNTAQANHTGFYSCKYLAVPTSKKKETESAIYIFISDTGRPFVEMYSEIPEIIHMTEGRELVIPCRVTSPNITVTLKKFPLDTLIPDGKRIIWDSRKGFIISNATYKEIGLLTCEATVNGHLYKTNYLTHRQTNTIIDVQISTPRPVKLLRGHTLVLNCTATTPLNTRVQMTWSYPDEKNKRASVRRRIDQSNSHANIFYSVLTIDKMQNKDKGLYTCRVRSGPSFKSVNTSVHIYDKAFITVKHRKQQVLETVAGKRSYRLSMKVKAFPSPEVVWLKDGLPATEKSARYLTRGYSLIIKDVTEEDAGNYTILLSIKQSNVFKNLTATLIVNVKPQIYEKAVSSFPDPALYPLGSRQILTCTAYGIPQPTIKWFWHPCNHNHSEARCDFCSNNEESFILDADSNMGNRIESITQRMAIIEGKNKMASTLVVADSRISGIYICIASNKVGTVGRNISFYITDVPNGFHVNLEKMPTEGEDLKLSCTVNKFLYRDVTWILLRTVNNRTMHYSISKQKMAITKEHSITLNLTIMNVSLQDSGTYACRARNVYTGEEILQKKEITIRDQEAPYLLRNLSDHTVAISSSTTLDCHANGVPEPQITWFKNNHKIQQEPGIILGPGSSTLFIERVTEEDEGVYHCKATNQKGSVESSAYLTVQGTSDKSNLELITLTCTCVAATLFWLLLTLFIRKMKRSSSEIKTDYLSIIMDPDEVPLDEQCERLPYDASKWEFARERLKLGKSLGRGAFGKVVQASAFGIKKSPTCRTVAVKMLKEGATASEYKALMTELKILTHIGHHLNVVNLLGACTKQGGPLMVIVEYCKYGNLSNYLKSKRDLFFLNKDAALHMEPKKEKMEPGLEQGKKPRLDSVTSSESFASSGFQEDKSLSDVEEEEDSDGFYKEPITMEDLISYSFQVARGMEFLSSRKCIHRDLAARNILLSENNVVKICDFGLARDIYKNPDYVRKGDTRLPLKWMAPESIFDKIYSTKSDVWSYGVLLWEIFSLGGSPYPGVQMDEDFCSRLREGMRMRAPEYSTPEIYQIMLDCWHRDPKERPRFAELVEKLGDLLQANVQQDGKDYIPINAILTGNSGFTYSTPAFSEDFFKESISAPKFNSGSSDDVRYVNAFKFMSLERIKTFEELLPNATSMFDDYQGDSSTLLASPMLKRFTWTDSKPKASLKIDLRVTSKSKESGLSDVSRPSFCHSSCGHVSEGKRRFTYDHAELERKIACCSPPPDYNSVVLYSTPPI
Worth noting: pIC50 values are minus log10 of concentrations stated in mol/L.

Consider the following illustrative entries.
[
  {
    "test-smiles": "c1ccc2c(-c3nc4ccc(N5CCOCC5)cc4[nH]3)n[nH]c2c1",
    "pIC50": 7.30
  },
  {
    "test-smiles": "c1ccc2[nH]c(-c3n[nH]c4ccccc34)nc2c1",
    "pIC50": 6.14
  },
  {
    "test-smiles": "c1ccc2c(-c3nc4cc(OCCCN5CCCC5)ccc4[nH]3)[nH]nc2c1",
    "pIC50": 7.32
  },
  {
    "test-smiles": "COC(=O)c1ccc2[nH]nc(-c3nc4ccc(N5CCC(N6CCCCC6)CC5)cc4[nH]3)c2c1",
    "pIC50": 7.82
  }
]

Answer with the recorded pIC50 for the molecule listed here: Fc1cccc2c(-c3nc4ccc(N5CCC(N6CCCCC6)CC5)cc4[nH]3)n[nH]c12
6.82

Answer with the recorded pIC50 for the molecule listed here: c1ccc(COc2ccc3[nH]nc(-c4nc5ccc(N6CCC(N7CCCCC7)CC6)cc5[nH]4)c3c2)cc1
8.52

Answer with the recorded pIC50 for the molecule listed here: c1ccc2c(-c3nc4ccc(N5CCC(N6CCCCC6)CC5)cc4[nH]3)n[nH]c2c1
7.55

Answer with the recorded pIC50 for the molecule listed here: c1ccc(COc2cccc3[nH]nc(-c4nc5cc(N6CCC(N7CCCCC7)CC6)ccc5[nH]4)c23)cc1
7.20

Answer with the recorded pIC50 for the molecule listed here: c1ccc(Oc2ccc3n[nH]c(-c4nc5cc(N6CCC(N7CCCCC7)CC6)ccc5[nH]4)c3c2)cc1
7.55

Answer with the recorded pIC50 for the molecule listed here: CN1CCC(N(C)c2ccc3nc(-c4n[nH]c5ccccc45)[nH]c3c2)CC1
8.10

Answer with the recorded pIC50 for the molecule listed here: CN1CCN(c2ccc3[nH]c(-c4[nH]nc5ccccc45)nc3c2)CC1
7.36

Answer with the recorded pIC50 for the molecule listed here: c1cc2[nH]nc(-c3nc4ccc(N5CCC(N6CCCCC6)CC5)cc4[nH]3)c2cc1NCC1CCCCC1
7.68

Answer with the recorded pIC50 for the molecule listed here: CN1CCN(Cc2ccc3[nH]c(-c4[nH]nc5ccccc45)nc3c2)CC1
6.77

Answer with the recorded pIC50 for the molecule listed here: c1ccc(COc2ccc3c(-c4nc5ccc(N6CCC(N7CCCCC7)CC6)cc5[nH]4)n[nH]c3c2)cc1
7.96

Answer with the recorded pIC50 for the molecule listed here: c1ccc2c(-c3nc4cc(-n5ccnc5)ccc4[nH]3)n[nH]c2c1
7.02
